// values below are reported AC50
targetDesc: UniProt:P08172
Sequence (P08172 whole entry): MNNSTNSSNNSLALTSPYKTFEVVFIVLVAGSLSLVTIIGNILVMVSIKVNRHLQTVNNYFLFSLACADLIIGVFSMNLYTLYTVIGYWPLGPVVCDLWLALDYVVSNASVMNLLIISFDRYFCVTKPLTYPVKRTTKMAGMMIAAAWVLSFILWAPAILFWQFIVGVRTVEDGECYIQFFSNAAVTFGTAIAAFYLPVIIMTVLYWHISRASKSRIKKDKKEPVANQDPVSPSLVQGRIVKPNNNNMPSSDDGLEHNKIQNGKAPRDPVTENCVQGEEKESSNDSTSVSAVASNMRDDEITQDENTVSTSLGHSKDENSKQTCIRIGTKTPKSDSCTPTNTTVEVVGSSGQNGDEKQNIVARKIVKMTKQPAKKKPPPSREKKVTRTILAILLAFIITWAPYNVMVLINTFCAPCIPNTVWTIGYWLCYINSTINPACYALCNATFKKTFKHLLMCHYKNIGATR
Format: functional, cell-based

The examples below pair each entry with its known result.
molecule | AC50
C[C@@H]1C[C@H]2[C@@H]3C[C@H](F)C4=CC(=O)C=C[C@]4(C)[C@@]3(F)[C@@H](O)C[C@]2(C)[C@@]1(OC(=O)c1ccco1)C(=O)SCF [FLUTICASONE FUROATE] | > 10 µM
CC/C=C\C/C=C\C/C=C\C/C=C\C/C=C\CCCC(=O)OCC | > 30 µM
C=CCN1CCc2nc(N)sc2CC1 [TALIPEXOLE] | > 30 µM
CC(CN(C)C)C(C)(O)Cc1ccc(Cl)cc1 (stereo not drawn) | > 10 µM
Cc1nnc(SCC2=C(C(=O)O)N3C(=O)[C@@H](NC(=O)Cn4cnnn4)[C@H]3SC2)s1 | > 300 µM
Cc1ccccc1N1C(=O)c2cc(S(N)(=O)=O)c(Cl)cc2NC1C (stereo not drawn) | > 10 µM
Oc1cc(O)c(Cl)cn1 | > 30 µM
CO[C@H]1C[C@H](O[C@H]2CC[C@@]3(C)[C@H](CC[C@@H]4[C@@H]3CC[C@]3(C)[C@@H](C5=CC(=O)OC5)[C@@H](OC(C)=O)C[C@]43O)C2)O[C@@H](C)[C@@H]1O | > 30 µM
CCOC(=O)c1ncn2c1CN(C)C(=O)c1cc(F)ccc1-2 | > 30 µM
COc1cc(C(=O)OCc2cccc(COC(=O)c3cc(OC)c(OC)c(OC)c3)n2)cc(OC)c1OC | > 30 µM

May I ask what AC50 has been recorded for NS(=O)(=O)c1cc2c(cc1Cl)N=C(CSCc1ccccc1)NS2(=O)=O [BENZTHIAZIDE] ? > 10 µM

May I ask what AC50 has been recorded for CC(C(=O)O)c1ccc2c(c1)CC(=O)c1ccccc1S2 (stereo not drawn) ? > 30 µM

May I ask what AC50 has been recorded for CC(C)(C)NCC(O)c1ccccc1Cl (stereo not drawn) ? > 30 µM

May I ask what AC50 has been recorded for CC(CN1c2ccccc2Sc2ccccc21)N(C)C (stereo not drawn) ? > 30 µM

May I ask what AC50 has been recorded for Cc1cc(C)nc(NS(=O)(=O)c2ccc(N)cc2)n1 ? > 10 µM

May I ask what AC50 has been recorded for CCCNC(=O)NS(=O)(=O)c1ccc(Cl)cc1 [CHLORPROPAMIDE] ? > 10 µM

May I ask what AC50 has been recorded for Cn1cc(C(=O)[C@@H]2CCc3nc[nH]c3C2)c2ccccc21 ? > 30 µM

May I ask what AC50 has been recorded for O=C1c2ccccc2C(=O)C1c1ccccc1 ? > 10 µM
